Cited source: patent US20140135357A1

assay_summary: clinical
condition_summary: human, in vivo, 30 mg/m2, AUC0-t
Can you tell me AUC0-t for the items I'm about to list?

**Query** Supply recorded AUC0-t for CC[C@@]1(OC(=O)[C@H](C)O)C(=O)OCc2c1cc1n(c2=O)Cc2cc3c(CN(C)C)c(O)ccc3nc2-1 [TLC-U2, S,S-topotecan lactate] here.
**Result** 49.5 ng·h/mL

**Query** Specify measured AUC0-t for CC[C@@]1(OC(=O)[C@@H](C)O)C(=O)OCc2c1cc1n(c2=O)Cc2cc3c(CN(C)C)c(O)ccc3nc2-1 [TLC-U1, S,R-topotecan lactate] .
**Result** 163 ng·h/mL

**Query** # return recorded AUC0-t for input CC[C@@]1(O)C(=O)OCc2c1cc1n(c2=O)Cc2cc3c(CN(C)C)c(O)ccc3nc2-1 [Topotecan, reference compound]
**Result** 97 ng·h/mL

====

For each entry below, report its Tmax value.
assay_summary: clinical
condition_summary: human, in vivo, 50 mg/m2, Tmax
Give the value in min but do not write min after it.

**Query** Tell me its Tmax given CC[C@@]1(O)C(=O)OCc2c1cc1n(c2=O)Cc2cc3c(CN(C)C)c(O)ccc3nc2-1 [Topotecan, reference compound] as the entry.
**Result** 54.2

**Query** Let me know recorded Tmax for CC[C@@]1(OC(=O)[C@H](C)O)C(=O)OCc2c1cc1n(c2=O)Cc2cc3c(CN(C)C)c(O)ccc3nc2-1 [TLC-U2, S,S-topotecan lactate] , thanks.
**Result** 23.4

**Query** Give Tmax for CC[C@@]1(OC(=O)[C@@H](C)O)C(=O)OCc2c1cc1n(c2=O)Cc2cc3c(CN(C)C)c(O)ccc3nc2-1 [TLC-U1, S,R-topotecan lactate]
**Result** 26.2

====

assay_summary: clinical
condition_summary: human, in vivo, 40 mg/m2, AUC0-t
Give AUC0-t for every item shown.
Express the reported value numerically, then name its unit.

**Query** Output measured AUC0-t for this item: CC[C@@]1(OC(=O)[C@H](C)O)C(=O)OCc2c1cc1n(c2=O)Cc2cc3c(CN(C)C)c(O)ccc3nc2-1 [TLC-U2, S,S-topotecan lactate]
**Result** 74.1 ng·h/mL

**Query** Give reported AUC0-t value for CC[C@@]1(OC(=O)[C@@H](C)O)C(=O)OCc2c1cc1n(c2=O)Cc2cc3c(CN(C)C)c(O)ccc3nc2-1 [TLC-U1, S,R-topotecan lactate]
**Result** 283 ng·h/mL

====

assay_summary: clinical
condition_summary: human, in vivo, 60 mg/m2, Cmax
Please provide measured Cmax for the entries that follow.
In your response, put the unit directly after the numeric value.

**Query** Please give measured Cmax of the following entry: CC[C@@]1(O)C(=O)OCc2c1cc1n(c2=O)Cc2cc3c(CN(C)C)c(O)ccc3nc2-1 [Topotecan, reference compound]
**Result** 57.1 ng/mL

**Query** Given CC[C@@]1(OC(=O)[C@@H](C)O)C(=O)OCc2c1cc1n(c2=O)Cc2cc3c(CN(C)C)c(O)ccc3nc2-1 [TLC-U1, S,R-topotecan lactate] , respond with its Cmax.
**Result** 347 ng/mL

**Query** Given CC[C@@]1(OC(=O)[C@H](C)O)C(=O)OCc2c1cc1n(c2=O)Cc2cc3c(CN(C)C)c(O)ccc3nc2-1 [TLC-U2, S,S-topotecan lactate] , respond with its Cmax.
**Result** 87.4 ng/mL
